- Tested on: lymphoid leukemia L1210
- Test protocol: Intraperitoneal (IP) lymphoid leukemia L1210 transplanted mouse tumor test
- Type: in vivo, murine
- Condition set: Table VIII; IP L1210, QD1-9 (9 injections)
- Excerpt: ^(a) Day 1-9 treatment schedule (9 injections) ^(b) Day 1,5,9 treatment schedule (3 injections) ^(c) Day 1 only treatment schedule (1 injection) ^(f) Percentage increase in life span of treated animals [(treated survival .div. control survival) × 100%] - 100%

Compound | Unit spec | OD (optimum dose)
CCNC1=C(N2CC2)C(=O)C(NCC)=C(N2CC2)C1=O [Compound 35] | mg/kg/injection | 1.5
O=C1C(NCCO)=C(N2CC2)C(=O)C(NCCO)=C1N1CC1 [Compound 38] | mg/kg/injection | 0.7
CNC1=C(N2CC2)C(=O)C(NC)=C(N2CC2)C1=O [Compound 34] | mg/kg/injection | 0.2
